From: ChEMBL document CHEMBL1122452

Please provide measured Change in WBC for the entries that follow.
tested on: P388; assay: Leukopenia % change in WBC at optimal dose on 3rd day.; assay type: functional, Mus musculus
Answers are plain numbers, in %.

Please report Change in WBC for every entry that follows.
1. COC12[C@@H]3N[C@@H]3CN1C1=C(C(=O)C(N3CC=CC3)=C(C)C1=O)[C@@H]2COC(N)=O (stereo partly specified)
2. COC12[C@@H]3N[C@@H]3CN1C1=C(C(=O)C(N3CC3C)=C(C)C1=O)[C@@H]2COC(N)=O (stereo partly specified)
3. CO[C@@]12[C@H](COC(N)=O)C3=C(C(=O)C(C)=C(N)C3=O)N1C[C@@H]1N[C@@H]12

[-13, 24, -42]

Please report Change in WBC for every entry that follows.
1. COC12[C@@H]3N[C@@H]3CN1C1=C(C(=O)C(N3CC3)=C(C)C1=O)[C@@H]2COC(N)=O (stereo partly specified)
2. COC12[C@@H]3N[C@@H]3CN1C1=C(C(=O)C(N3CCCC(O)C3)=C(C)C1=O)[C@@H]2COC(N)=O (stereo partly specified)
3. COC12[C@@H]3N[C@@H]3CN1C1=C(C(=O)C(N3CCCC3)=C(C)C1=O)[C@@H]2COC(N)=O (stereo partly specified)

1: 11; 2: 55; 3: 64

Please report Change in WBC for every entry that follows.
1. COC12[C@@H]3N[C@@H]3CN1C1=C(C(=O)C(N3CCOCC3)=C(C)C1=O)[C@@H]2COC(N)=O (stereo partly specified)
2. COC12[C@@H]3N[C@@H]3CN1C1=C(C(=O)C(N3CCSCC3)=C(C)C1=O)[C@@H]2COC(N)=O (stereo partly specified)
3. COC12[C@@H]3N[C@@H]3CN1C1=C(C(=O)C(N3CCN(C)CC3)=C(C)C1=O)[C@@H]2COC(N)=O (stereo partly specified)
4. COC12[C@@H]3N[C@@H]3CN1C1=C(C(=O)C(N3CCN(c4ccc(C(C)=O)cc4)CC3)=C(C)C1=O)[C@@H]2COC(N)=O (stereo partly specified)
5. COC12[C@@H]3N[C@@H]3CN1C1=C(C(=O)C(N3CCC(N4CCCCC4)CC3)=C(C)C1=O)[C@@H]2COC(N)=O (stereo partly specified)

[82, 44, 34, 40, 29]
